molecular target: human CD3 on cells (human PBMC; Jurkat TCR/CD3 NFAT reporter cells) (human, UniProt P07766 23-207; P04234 22-171; P09693 23-182); test: cell-based or functional assay
Sequence (P07766 23-207, chain 1 of 3): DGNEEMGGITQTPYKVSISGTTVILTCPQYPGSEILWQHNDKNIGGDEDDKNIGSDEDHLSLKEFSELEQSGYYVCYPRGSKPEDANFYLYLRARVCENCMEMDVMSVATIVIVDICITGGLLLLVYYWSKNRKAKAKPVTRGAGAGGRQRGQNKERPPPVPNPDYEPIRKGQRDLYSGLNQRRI
Sequence (P04234 22-171, chain 2 of 3): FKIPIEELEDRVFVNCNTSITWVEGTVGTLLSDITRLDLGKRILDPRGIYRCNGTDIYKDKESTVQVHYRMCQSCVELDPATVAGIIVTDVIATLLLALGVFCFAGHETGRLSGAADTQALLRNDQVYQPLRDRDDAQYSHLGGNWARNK
Sequence (P09693 23-182, chain 3 of 3): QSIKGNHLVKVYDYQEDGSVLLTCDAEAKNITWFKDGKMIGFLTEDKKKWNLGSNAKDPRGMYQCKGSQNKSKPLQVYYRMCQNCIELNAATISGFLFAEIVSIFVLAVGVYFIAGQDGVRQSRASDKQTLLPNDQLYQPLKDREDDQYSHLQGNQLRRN
# key: entry, value: CD3-NFAT Activity by CD3 mAb

BINDER | CD3-NFAT Activity by CD3 mAb
Hu153A6B1-14 (antibody, V domains shown, humanized mAb) VH: EVQLQESGPGLVKPSETLSLTCTVSGGSISSYNIHWVRQPPGKGLEWIGRIRYNGDTSYNSALKSRVTISRDTSKNQFSLKLSSVTAADTAVYYCARGPYGGSREPLFDYWGQGTMVTVSS VL: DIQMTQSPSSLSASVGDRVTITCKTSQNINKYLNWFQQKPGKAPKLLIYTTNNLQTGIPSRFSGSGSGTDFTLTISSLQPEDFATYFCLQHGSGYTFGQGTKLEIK | > 50 % SP34
Hu153A6B1-16 (antibody, V domains shown, humanized mAb) VH: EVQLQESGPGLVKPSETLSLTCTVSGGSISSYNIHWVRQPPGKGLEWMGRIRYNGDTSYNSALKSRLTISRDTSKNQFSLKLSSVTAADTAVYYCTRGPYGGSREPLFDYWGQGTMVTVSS VL: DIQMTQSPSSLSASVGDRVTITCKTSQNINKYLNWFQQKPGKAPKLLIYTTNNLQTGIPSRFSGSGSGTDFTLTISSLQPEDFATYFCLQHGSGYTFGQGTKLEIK | > 50 % SP34
Hu153A6B1-11 (antibody, V domains shown, humanized mAb) VH: EVQLQESGPGLVKPSETLSLTCTVSGFSISSYNIHWVRQPPGKGLEWMGRIRYNGDTSYNSALKSRLTISRDTSKNQVSLKLSSVTAADTAVYYCTRGPYGGSREPLFDYWGQGTMVTVSS VL: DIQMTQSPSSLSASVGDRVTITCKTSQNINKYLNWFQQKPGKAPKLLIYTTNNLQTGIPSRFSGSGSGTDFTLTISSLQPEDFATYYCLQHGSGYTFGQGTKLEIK | > 50 % SP34
Hu192A7B9-15 (antibody, V domains shown, humanized mAb) VH: EVQLQESGPGLVKPSETLSLTCTVSGGSISSYNVHWVRQPPGKGLEWMGRMRYNGDTSYNSALKSRLTISRDTSKNQFSLKLSSVTAADTAVYYCARGPRGGYYSALFDYWGQGTMVTVSS VL: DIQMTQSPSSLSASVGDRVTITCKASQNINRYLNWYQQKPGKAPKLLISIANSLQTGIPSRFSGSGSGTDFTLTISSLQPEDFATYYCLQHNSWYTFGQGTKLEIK | > 50 % SP34
Hu192A7B9-7 (antibody, V domains shown, humanized mAb) VH: EVQLQESGPGLVKPSETLSLTCTVSGGSISSYNVHWIRQPPGKGLEWIGRMRYNGDTSYNSALKSRVTISVDTSKNQFSLKLSSVTAADTAVYYCARGPRGGYYSALFDYWGQGTMVTVSS VL: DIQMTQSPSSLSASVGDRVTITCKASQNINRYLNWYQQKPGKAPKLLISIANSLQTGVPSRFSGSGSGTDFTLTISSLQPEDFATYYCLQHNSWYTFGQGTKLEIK | ≤ 50 % SP34
